Hello, the source for this data is patent US20230330254A1, in case you need it.

biological target: human GLP1R (Homo sapiens); assay: Luciferase reporter assay, HEK293/CRE-Luc/hGLP1R (Example 17); format: cell-based; set-up: engineered to express full-length human GLP1R, cynomolgus GLP1R; expressed in transfected cells; host or cells: HEK293/CRE-Luc; details: HEK293/CRE-Luc/hGLP1R; relative to M2361 of the same experiment
Sequence (P43220 24-463): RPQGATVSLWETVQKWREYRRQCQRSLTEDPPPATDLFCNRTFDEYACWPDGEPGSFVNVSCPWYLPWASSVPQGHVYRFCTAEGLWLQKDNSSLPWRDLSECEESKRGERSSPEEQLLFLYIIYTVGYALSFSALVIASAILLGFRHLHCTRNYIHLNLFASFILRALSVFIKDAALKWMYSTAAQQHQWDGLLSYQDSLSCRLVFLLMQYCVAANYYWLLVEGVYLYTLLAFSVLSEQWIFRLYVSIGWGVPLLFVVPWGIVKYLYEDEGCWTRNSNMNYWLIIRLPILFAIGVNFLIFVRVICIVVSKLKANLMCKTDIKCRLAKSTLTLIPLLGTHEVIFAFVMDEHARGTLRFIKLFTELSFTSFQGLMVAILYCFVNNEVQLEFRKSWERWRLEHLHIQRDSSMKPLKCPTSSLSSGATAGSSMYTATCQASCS
Where a SMILES comes first, the peptide text is derived from it. [ ]: non-standard residue; d: D form. Bip(2'-Et,4'-O(CH2)4NH2) = CCc1cc(OCCCCN)ccc1-c1ccc(C[C@H](N)C(=O)O)cc1; Nva(5-(3,5-Me2Ph)) = Cc1cc(C)cc(CCC[C@H](N)C(=O)O)c1; Ala(1H-tetrazol-5-yl) = N[C@@H](Cc1nnn[nH]1)C(=O)O; αMePhe(2-F) = C[C@](N)(Cc1ccccc1F)C(=O)O
ENDPOINT_LABEL: Relative Potency (% M2361 EC50) (%)
Response body: numeric value in %, unit text excluded.

In the examples that follow, each entry is paired with its recorded Relative Potency (% M2361 EC50).
CCc1cc(OCCCCN)ccc1-c1ccc(C[C@H](NC(=O)[C@H](CC(=O)O)NC(=O)[C@H](CO)NC(=O)[C@@H](NC(=O)[C@](C)(Cc2ccccc2F)NC(=O)[C@@H](NC(=O)CNC(=O)[C@H](Cc2nn[nH]n2)NC(=O)[C@H](C)NC(=O)[C@H](Cc2c[nH]cn2)NC(=O)[C@@H](N)CCC(N)=O)[C@@H](C)O)[C@@H](C)O)C(=O)N[C@@H](CCCc2cc(C)cc(C)c2)C(N)=O)cc1 [P13] (H-QHA[Ala(1H-tetrazol-5-yl)]GT[αMePhe(2-F)]TSD[Bip(2'-Et,4'-O(CH2)4NH2)][Nva(5-(3,5-Me2Ph))]-NH2) :: 1.5
CCc1cc(OCCCCN)ccc1-c1ccc(C[C@H](NC(=O)[C@H](CC(=O)O)NC(=O)[C@H](CO)NC(=O)[C@@H](NC(=O)[C@](C)(Cc2ccccc2F)NC(=O)[C@@H](NC(=O)CNC(=O)[C@@H](N)CCC(N)=O)[C@@H](C)O)[C@@H](C)O)C(=O)N[C@@H](CCCc2cc(C)cc(C)c2)C(N)=O)cc1 [M2913] :: 0.0

Now for the molecule whose Relative Potency (% M2361 EC50) we want.
[in] For human GLP1R (Homo sapiens), give the measured Relative Potency (% M2361 EC50) of the entry CCc1cc(OCCCCNC(=O)[C@H](CO)NC(=O)CNC(=O)CNC(=O)CNC(=O)CNC(=O)CCC(=O)N2Cc3ccccc3C#Cc3ccccc32)ccc1-c1ccc(C[C@H](NC(=O)[C@H](CC(=O)O)NC(=O)[C@H](CO)NC(=O)[C@@H](NC(=O)[C@](C)(Cc2ccccc2F)NC(=O)[C@@H](NC(=O)CNC(=O)[C@H](Cc2nn[nH]n2)NC(=O)C(C)(C)C(=O)NCCc2cnc[nH]2)[C@@H](C)O)[C@@H](C)O)C(=O)N[C@@H](CCCc2cc(C)cc(C)c2)C(N)=O)cc1 [LP6, DIBAC- suc-G4S- P9]
[out] 21.2
